Where do the numbers come from? From PubChem BioAssay (NCI).

experiment summary: NCI Yeast Anticancer Drug Screen. Data for the bub3 strain (AID 167)
condition summary: S. cerevisiae bub3 mutant strain, at 1.2 µM, active compounds read high
About 79,000 compounds went through this panel and 15% of them were active in at least one assay; those are over-represented in the sample as a whole.
# growth inhibition per entry
# value in %; strip the unit string

Below are worked cases with known answers.
compound	uom	reported measurement
c1ccc2c(c1)sc1cc3ccncc3cc12	%	-12
CCOC(=O)C1=C(C(=O)c2ccccc2)C(c2ccccc2[N+](=O)[O-])C(C(=O)c2ccccc2)=C(C(=O)OCC)N1	%	6
O=C1CSc2cc([N+](=O)[O-])ccc2N1	%	8
CC[C@@]1(O)C(=O)OCc2c1cc1n(c2=O)Cc2cc3c(CN(C)C)c(O)ccc3nc2-1	%	0
Cc1ccc(S(=O)(=O)NNC(=S)Nc2cccc3ccccc23)cc1	%	-1
CC(=O)[O][Bi]([c]1ccccc1)[c]1ccccc1	%	15

// sample "Cc1cc2c(cc1C(=O)CCC(=O)O)CC1(C2)Cc2cc(C)c(C(=O)CCC(=O)O)cc2C1" , its growth inhibition was -4

// sample "Cc1cc(S(=O)(=O)/N=C(/NN)NNc2cccc(C(F)(F)F)n2)c(S)cc1Cl" , its growth inhibition was 4

// sample "CCCCCCCCCCCC(=O)N(C)C" , its growth inhibition was 3

// sample "CCCCCCCCNC(=O)C1=C(C)NC(C)=C(C(=O)NCCCCCCCC)C1" , its growth inhibition was 0
